- MEASUREMENT_TARGET: GST-human KRas166 (G12V) GPPNHP (Homo sapiens, UniProt P01116, G12V)
- ASSAY: KRas small-molecule screening by SPR (BIACORE T200)
- Assay type: binding
- Set-up: made in house; host or cells: E. coli C41(DE3); key: SPR response units (RU)
- CONDITION_INFO: compounds at final concentration of 100 uM; immobilised KRAS166 (G12V) GPPNHP; no unit printed (method speaks of response units)
REPORTED_PROPERTY: SPR

# COMPOUND, SPR
records = [
    ("COc1cccc(-c2ccc(Nc3cccc(CN4CC(C)OC(C)C4)c3)cc2)c1 (centres unmarked)", 55),
    ("COc1cccc(-c2ccc(Nc3ccc(C(=O)NCC4CCNCC4)cc3)cc2)c1", 1426),
    ("COc1cccc(-c2ccc(Nc3cccc(C(=O)NCC4CCNCC4)c3)cc2)c1", 396),
    ("COc1cccc(-c2ccc(Nc3ccc(CN(C)C)cc3)c(OC)n2)c1", 152),
    ("COc1cccc(-c2ccc(Nc3cc(CN(C)C)ccc3C)cc2)c1", 69),
    ("COc1cccc(-c2ccc(Nc3ccc(CN(C)C)cc3)c(OC)c2)c1", 233),
]

a: COc1cccc(-c2ccc(Nc3ccc(CN(C)C)cc3)cc2)c1
b: COc1cccc(-c2ccc(Nc3cc(C(=O)N(C)C)ccc3C)cc2)c1
*Q* Between the entries labeled a and b , whose measured SPR is lower? // return label of chosen record
*A* b
(b: 28, a: 230)

A: COc1cccc(-c2ccc(Nc3ccc(CN(C)C)cc3)c(OC)c2F)c1
B: COc1cc(-c2ccc(Nc3ccc(CN(C)C)cc3)cc2)ccc1C
*Q* Between the entries labeled A and B , whose measured SPR is lower? // return label of chosen record
*A* B
(B: 119, A: 177)

Origin of values: patent US11970469B2
